RUN CONDITIONS: pH 6.8
Assignment: determine reported aqueous solubility for the given molecules.
Numbers only, in µg/mL.

Previously resolved entries follow.
MOLECULE	aqueous solubility / µg/mL
CC(C)(C)C[C@@H]1COCc2nc(OCc3ccccn3)cc(=O)n21	62.1
COc1ccc(-c2ccccc2)c(NS(=O)(=O)c2cc(O)c(Cl)cc2Cl)c1	27.6

Take each entry in turn and give its aqueous solubility.
1. Cc1cccc2c(=O)n(CCC(=O)Nc3cc(C4CC4)n[nH]3)cnc12
2. CC(C(=O)Nc1ccccc1)N1CCCN(c2nccs2)CC1 (centres undefined)
3. COC(=O)N1CCCN(C(=O)c2ccc(-c3ccccc3Cl)o2)CC1

1. 8.26
2. 37.1
3. 58.9

Hey, quick one: what's aqueous solubility for each of these?
1. CNC(=O)c1cn(C)nc1CC1CCN(Cc2cnc(-c3ccc(OC)cc3)nc2)CC1
2. CC(C)(C)c1nccc(NCc2ccncc2)n1
3. Nc1ccccc1OCCn1ccnc1
4. NCc1ccc(Oc2ccccc2)nc1
5. COc1cccc(/C=C2/N=C(c3ccccc3C)NC2=O)c1OC
6. COc1ccc(CCC(=O)N2CCN(C(=O)c3cc4n(n3)CCCC4)CC2)cc1
7. Cc1ccc(F)cc1NC(=O)c1cnc2onc(C(C)C)c2c1

1: 57.5; 2: 30.4; 3: 24.7; 4: 22; 5: 0.35; 6: 83.4; 7: 42.4

###

PROPERTY LABEL: intrinsic clearance, human liver microsomes (mL/min/kg)
Answers are plain numbers, in mL/min/kg.

Some compounds with recorded intrinsic clearance, human liver microsomes:
STRUCTURE AS SMILES	VALUE UNITS	MEASUREMENT
Cc1nc(C2CCN(c3ccc(F)cc3C#N)CC2)no1	mL/min/kg	9.68
Cc1cc(CNc2cc(C(=O)N(C)C)ccn2)sc1Br	mL/min/kg	36.2
Cc1cccc(C)c1OCC(=O)N(C)[C@@H]1CC[C@@H](N2CCOCC2)[C@@H]1O	mL/min/kg	6.43
CC#CCNc1ccc(-n2cnnn2)c(C)c1	mL/min/kg	21.1
COc1cc(C=C2C(=O)NN(c3ccccc3)C2=O)ccc1OCC(N)=O	mL/min/kg	158
CN(CC(=O)Nc1cccc(F)c1)C(=O)c1cccc(C#N)c1	mL/min/kg	26.4
Cc1nc2cc(-c3nccn3C)nn2c(NCc2cccnc2)c1C	mL/min/kg	14.7
Cc1cc(C)n(-c2cccc(NC(=O)c3ccc(F)c(F)c3)c2)n1	mL/min/kg	31.3
CN1CCN(c2ccc3nc(-c4cc(C(C)(C)C)c(OCCCC(=O)NCCCN=[N+]=[N-])c(C(C)(C)C)c4)[nH]c3c2)CC1	mL/min/kg	177
c1ccc(-c2nccc(NCc3nnc4n3CCCCC4)n2)cc1	mL/min/kg	78.9

Would you mind listing intrinsic clearance, human liver microsomes for each of the following compounds?
1. O=C(NCCNc1ncccc1C(F)(F)F)c1cnc2ccccn2c1=O
2. COc1cccc(OC)c1-c1cc(C(=O)N[C@@H](CC(C)C)C(=O)O)nn1-c1ccnc2cc(Cl)ccc12
3. CNC(=O)c1ccc(N2CCCc3cc(OC)ccc3C2)nn1

1. 27.8
2. 9.49
3. 11.8

###

PROPERTY LABEL: MDR1-MDCK efflux ratio
One number for each entry.

Illustrative cases are given below, each with its answer.
COMPOUND	MDR1-MDCK efflux ratio
O=C(CSc1ccc(F)cc1)N1CCCC1	0.746
O=C(c1ccc(Cn2nnc(-c3cccc(F)c3)n2)cc1)N1CCCC1	0.793
Cc1ncc2c(n1)CN(CCCc1nc3ccccc3o1)CC2	0.774
Cc1cccc(NCC2CCN(C(=O)c3ccccc3)CC2)n1	1.18
CN1C(=O)N(CC(=O)Nc2ccccc2-c2ccccc2)C(=O)C1(C)C	12.9
Cc1nccc(C2CCN(Cc3ncc[nH]3)CC2)n1	25.7
O=C(CCn1cncn1)N(CC#Cc1ccccc1)C1CCCC1	1.98
CCCc1ncncc1C(=O)NCc1nncn1CCC	14.7

Okay, here is my list. What is MDR1-MDCK efflux ratio for each of these?
1. CC1(c2ccn[nH]2)CCN(Cc2ccco2)CC1
2. Clc1ccc(Cc2nc(-c3ccccc3)n[nH]2)cn1
3. CCCc1cc(C(=O)Nc2ccc(-c3nnc(C)[nH]3)cc2)no1
4. CC1CCC(O)(CSc2nncn2C(C)C)CC1 (stereo not drawn)
5. CC(=O)NC[C@H]1C[C@]2(C)[C@@H](CCCC[C@]2(C)O)N1CC1(O)CCCC1
6. CC(=O)NCCNc1cc(Cl)nn2c(-c3cccc(S(=O)(=O)N(C)C)c3)c(C)nc12
7. CC(=O)N1CCN(CCNC(=O)N2CCc3sccc3C2)CC1
8. O=C(Nc1cnc2ccccc2n1)c1ccncc1

1. 0.904
2. 1.52
3. 0.865
4. 0.85
5. 8.2
6. 67.7
7. 30.4
8. 0.578

Fill in MDR1-MDCK efflux ratio for each of the 5 compounds listed.
1. N#Cc1ccccc1-c1ccc(-c2nccn2-c2cccnc2)o1
2. O=C(NCCN1C(=O)CSC1=O)c1cc(Cl)c2c(c1)OCO2
3. FC(F)(F)COc1ccc(CN2CCc3c(cnn3-c3ccccc3)C2)nn1
4. COc1ccc(C(=O)Nc2ccc3oc(C)nc3c2)c(OC)c1
5. CCCCC1=NC2(CCCC2)C(=O)N1Cc1ccc(-c2ccccc2-c2nn[nH]n2)cc1

1: 1.48; 2: 2.69; 3: 0.59; 4: 0.547; 5: 148

###

RUN CONDITIONS: pH 6.8
PROPERTY LABEL: aqueous solubility (µg/mL)
One number for each entry, in µg/mL.

# annotated cases, reported aqueous solubility shown
STRUCTURE AS SMILES	VALUE UNITS	MEASUREMENT
CCC(CC)NC(=O)c1ccc(C#N)c(C)n1	µg/mL	52.9
Cc1ccc(-c2cn(CC3CCN(Cc4c[nH]c(C)n4)CC3)nn2)cc1	µg/mL	25
CNC(=O)c1ccc2c(c1)NC(=O)/C2=C(\Nc1cccc(CN(C)C)c1)c1ccccc1	µg/mL	8.39
O=C(O)c1cc(/N=N/c2ccc(S(=O)(=O)Nc3ccccn3)cc2)ccc1O	µg/mL	54.5
N#Cc1cccnc1Nc1cnn(Cc2ccccc2)c1	µg/mL	3.72
CC(=O)NCC1CCN(C(=O)c2cncn2-c2ccc(F)cc2)CC1	µg/mL	46.3

Record aqueous solubility per entry; entries follow.
1. CC(C)c1nnc(CN2CCN(c3nccs3)CC2)o1
2. CNC(=O)c1ccccc1Nc1nc(Nc2ccc(N3CCOCC3)cc2OC)ncc1Cl
3. Cn1ncc2c(Oc3cccc(C(C)(C)C)c3)ncnc21
4. COc1c(C)cnc(CN(C)S(N)(=O)=O)c1C
5. COc1cc(CNc2nc3ccccc3nc2C)ccn1
6. CNc1ccc(/C=C/C=C/c2nc3ccc(O)cc3s2)cn1

1. 52.1
2. 1.95
3. 3.9
4. 30.6
5. 26.8
6. 0.22

###

Field: intrinsic clearance, rat liver microsomes. Provide a value for each of the molecules that follow.
Answers are plain numbers, in mL/min/kg.

Below, each entry is followed by its recorded intrinsic clearance, rat liver microsomes result.
STRUCTURE AS SMILES	VALUE UNITS	MEASUREMENT
COc1ccc(C(=O)N2CCCC2)cc1NC(=O)c1cc(F)c(F)c(F)c1F	mL/min/kg	90.1
CCN(CC)CC(=O)Nc1ccc(Oc2ccc(C)nn2)cc1	mL/min/kg	31.6
CCC(=O)N(C)c1ccccc1C(=O)O	mL/min/kg	1130
CC(=O)NC[C@H]1C[C@]2(C)[C@@H](CCCC[C@]2(C)O)N1CC1(O)CCCCCC1	mL/min/kg	587

Would you mind listing intrinsic clearance, rat liver microsomes for each of the following molecules?
1. CCN1CCN(c2ccc(NC(=O)c3ncoc3-c3ccc4ccccc4c3)cc2)CC1
2. Cc1cccc(N2CCN(CCCCNC(=O)c3c(F)cccc3F)CC2)c1

296
510

###

RUN CONDITIONS: pH 6.8
PROPERTY LABEL: aqueous solubility

Use the examples below as a reference point.
COMPOUND	aqueous solubility
CN1CCN(Cc2noc(Cc3ccccc3)n2)c2ccccc21	14.1 µg/mL
O=C(COc1ccc2oc3c(c2c1)CCCC3)N1CCOCC1	43 µg/mL

Each compound below has a recorded value; state its aqueous solubility.
1. O=C1CN(C(=O)c2cccc(Oc3cccc(C(F)(F)F)c3)c2)CCN1
2. CS(=O)(=O)NCCc1ccc2c(c1)OCCO2
3. CC(C)c1cnn2c(NCc3ccccc3)cc(NCCCCCCN)nc12
4. O=C(c1cccnc1)N1CCCC(c2cccc(-c3cccc(Cl)c3)n2)C1 (stereo unspecified)
5. O=C(Nc1nc(-c2ccccn2)cs1)c1ccc(F)cc1Cl
6. COc1cccc(OCCCn2cncc2-c2cc3c(cc2OC)OCCCO3)c1
7. CC(C)c1cc(N2CCc3[nH]nc(C4CC4)c3C2)n2nccc2n1
8. CC(=O)n1c(/C=C2/N=C(c3ccc(F)cc3)OC2=O)cc2ccccc21

39 µg/mL
32.2 µg/mL
50 µg/mL
36 µg/mL
5.16 µg/mL
95.5 µg/mL
23.8 µg/mL
5.43 µg/mL

Record request: aqueous solubility value, item `COc1ccc(-c2cn3c4ccccc4nc3n2CCO)cc1`
47 µg/mL

From: the Biogen ADME set (Fang et al. 2023)
